- Study Target: Met (Homo sapiens (Human), UniProt P08581)
- Sequence (P08581 25-1390): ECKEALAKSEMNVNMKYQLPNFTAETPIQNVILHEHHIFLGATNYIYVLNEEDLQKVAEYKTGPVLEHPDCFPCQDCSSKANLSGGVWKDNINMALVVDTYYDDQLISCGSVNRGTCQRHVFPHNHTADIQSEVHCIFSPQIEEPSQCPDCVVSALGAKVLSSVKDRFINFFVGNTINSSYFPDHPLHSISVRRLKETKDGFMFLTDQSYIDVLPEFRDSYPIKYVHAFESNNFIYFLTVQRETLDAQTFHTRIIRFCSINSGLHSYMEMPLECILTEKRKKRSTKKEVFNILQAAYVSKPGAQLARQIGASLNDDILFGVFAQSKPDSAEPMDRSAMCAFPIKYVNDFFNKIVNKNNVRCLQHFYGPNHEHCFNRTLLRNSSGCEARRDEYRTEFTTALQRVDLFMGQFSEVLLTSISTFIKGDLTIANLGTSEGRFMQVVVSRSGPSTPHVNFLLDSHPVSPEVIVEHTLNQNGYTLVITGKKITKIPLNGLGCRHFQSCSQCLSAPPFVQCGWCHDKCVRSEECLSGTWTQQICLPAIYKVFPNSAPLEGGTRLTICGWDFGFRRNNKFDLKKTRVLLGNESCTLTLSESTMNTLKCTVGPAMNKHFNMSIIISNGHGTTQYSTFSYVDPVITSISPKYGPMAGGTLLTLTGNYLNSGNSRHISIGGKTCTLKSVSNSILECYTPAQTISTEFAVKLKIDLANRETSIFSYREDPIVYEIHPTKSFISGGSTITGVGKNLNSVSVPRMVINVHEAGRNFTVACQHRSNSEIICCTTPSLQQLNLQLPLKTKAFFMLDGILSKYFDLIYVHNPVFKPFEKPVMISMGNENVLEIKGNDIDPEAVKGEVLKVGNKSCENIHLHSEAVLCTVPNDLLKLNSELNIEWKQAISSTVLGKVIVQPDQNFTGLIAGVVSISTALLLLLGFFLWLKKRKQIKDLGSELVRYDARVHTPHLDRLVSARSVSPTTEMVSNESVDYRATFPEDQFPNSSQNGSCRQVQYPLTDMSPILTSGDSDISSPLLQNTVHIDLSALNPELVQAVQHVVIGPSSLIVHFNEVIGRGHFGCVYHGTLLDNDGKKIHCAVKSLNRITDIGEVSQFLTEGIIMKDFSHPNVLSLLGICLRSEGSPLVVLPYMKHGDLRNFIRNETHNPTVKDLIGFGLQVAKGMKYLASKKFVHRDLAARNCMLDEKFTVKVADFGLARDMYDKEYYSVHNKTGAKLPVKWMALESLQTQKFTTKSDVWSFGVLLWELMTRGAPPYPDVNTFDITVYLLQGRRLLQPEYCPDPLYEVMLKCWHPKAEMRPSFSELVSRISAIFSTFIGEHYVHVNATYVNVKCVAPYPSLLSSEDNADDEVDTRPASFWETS
- Assay Name: Met autophosphorylation ELISA in PC-3 cells
- Experimental Parameters: cellular, HGF stimulated, read-out: c-Met IC50
Catalogue of compounds with associated IC50

These solved cases illustrate the format of a correct answer.
CNC(=O)c1cc2c(Oc3ccc(NC(=O)C4(C(=O)Nc5ccc(F)cc5C5CC5)CC4)cc3F)ccnc2cc1OC :: 10 to 100 nM
COc1cc2nccc(Oc3ccc(NC(=O)C4(C(=O)Nc5ccc(F)cc5)CC4)cc3)c2cc1C(=O)NCCN1CCOCC1 :: 10 to 100 nM

-- ask Look up IC50: CNC(=O)c1cc2c(Oc3ccc(NC(=O)C4(C(=O)Nc5ccc(F)cc5OC(C)C)CC4)cc3F)ccnc2cc1OC
-- reply 100 to 300 nM

-- ask Follow-up item: CC(=O)c1ccc2c(Oc3ccc(NC(=O)C4(C(=O)Nc5ccc(F)cc5)CC4)cc3)ccnc2c1
-- reply 100 to 300 nM

###

- Study Target: Mer (Homo sapiens (Human), UniProt Q12866)
- Sequence (Q12866 21-999): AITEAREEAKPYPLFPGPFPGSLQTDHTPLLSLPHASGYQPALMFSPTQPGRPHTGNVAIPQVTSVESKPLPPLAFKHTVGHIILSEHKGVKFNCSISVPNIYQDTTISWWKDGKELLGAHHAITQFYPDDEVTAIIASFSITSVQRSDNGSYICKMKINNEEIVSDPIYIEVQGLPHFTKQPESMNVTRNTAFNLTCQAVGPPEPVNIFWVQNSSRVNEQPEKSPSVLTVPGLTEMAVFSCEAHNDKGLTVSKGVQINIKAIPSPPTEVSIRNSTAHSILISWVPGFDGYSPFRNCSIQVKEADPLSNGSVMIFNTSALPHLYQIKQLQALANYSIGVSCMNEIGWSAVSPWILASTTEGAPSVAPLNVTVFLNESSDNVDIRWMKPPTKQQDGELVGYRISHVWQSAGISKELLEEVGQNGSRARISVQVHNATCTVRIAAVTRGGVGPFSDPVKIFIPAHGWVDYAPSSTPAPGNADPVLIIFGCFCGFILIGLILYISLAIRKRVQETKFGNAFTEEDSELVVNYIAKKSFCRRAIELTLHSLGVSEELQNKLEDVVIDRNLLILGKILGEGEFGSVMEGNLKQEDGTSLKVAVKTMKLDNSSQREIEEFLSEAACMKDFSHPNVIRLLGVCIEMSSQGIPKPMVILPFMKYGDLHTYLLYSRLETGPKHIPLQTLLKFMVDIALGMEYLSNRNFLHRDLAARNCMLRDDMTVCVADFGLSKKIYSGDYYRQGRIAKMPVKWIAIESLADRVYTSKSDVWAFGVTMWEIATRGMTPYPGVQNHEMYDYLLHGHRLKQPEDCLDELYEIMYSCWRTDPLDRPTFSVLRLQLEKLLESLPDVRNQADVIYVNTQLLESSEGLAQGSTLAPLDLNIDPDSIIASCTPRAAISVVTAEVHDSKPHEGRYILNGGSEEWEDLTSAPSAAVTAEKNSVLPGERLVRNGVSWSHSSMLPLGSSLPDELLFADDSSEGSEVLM
- Assay Name: Mer autophosphorylation ELISA in transient transfected 293A cells
- Experimental Parameters: cellular, MERTK transfected 293A cells
Catalogue of compounds with associated IC50

COc1cc2nccc(Oc3ccc(NC(=O)C4(C(=O)Nc5ccc(F)cc5)CC4)cc3)c2cc1-c1ccn[nH]1 :: ≤ 10 nM
COc1cc2nccc(Oc3ccc(NC(=O)C4(C(=O)Nc5ccc(F)cc5)CC4)cc3)c2cc1C(=O)NOCCO :: 10 to 100 nM
COc1cc2nccc(Oc3ccc(NC(=O)C4(C(=O)Nc5ccc(F)cc5)CC4)cc3F)c2cc1C(N)=O :: ≤ 10 nM
NC(=O)c1cc2c(Oc3ccc(NC(=O)C4(C(=O)Nc5ccc(F)cc5)CC4)cc3)ccnc2cc1OCCCN1CCOCC1 :: 10 to 100 nM
COc1cc2nccc(Oc3ccc(NC(=O)C4(C(=O)Nc5ccc(F)cc5)CC4)cc3)c2cc1-c1ncc[nH]1 :: ≤ 10 nM
COc1cc2nccc(Oc3ccc(NC(=O)C4(C(=O)Nc5ccc(F)cc5)CC4)cc3)c2cc1-c1nnco1 :: ≤ 10 nM

-- ask Look up IC50: O=C(NOCCO)c1ccc2c(Oc3cc(F)c(NC(=O)C4(C(=O)Nc5ccc(F)cc5)CC4)cc3F)ccnc2c1
-- reply 100 to 300 nM

###

- Study Target: AXL (Homo sapiens (Human), UniProt P30530)
- Sequence (P30530 26-894): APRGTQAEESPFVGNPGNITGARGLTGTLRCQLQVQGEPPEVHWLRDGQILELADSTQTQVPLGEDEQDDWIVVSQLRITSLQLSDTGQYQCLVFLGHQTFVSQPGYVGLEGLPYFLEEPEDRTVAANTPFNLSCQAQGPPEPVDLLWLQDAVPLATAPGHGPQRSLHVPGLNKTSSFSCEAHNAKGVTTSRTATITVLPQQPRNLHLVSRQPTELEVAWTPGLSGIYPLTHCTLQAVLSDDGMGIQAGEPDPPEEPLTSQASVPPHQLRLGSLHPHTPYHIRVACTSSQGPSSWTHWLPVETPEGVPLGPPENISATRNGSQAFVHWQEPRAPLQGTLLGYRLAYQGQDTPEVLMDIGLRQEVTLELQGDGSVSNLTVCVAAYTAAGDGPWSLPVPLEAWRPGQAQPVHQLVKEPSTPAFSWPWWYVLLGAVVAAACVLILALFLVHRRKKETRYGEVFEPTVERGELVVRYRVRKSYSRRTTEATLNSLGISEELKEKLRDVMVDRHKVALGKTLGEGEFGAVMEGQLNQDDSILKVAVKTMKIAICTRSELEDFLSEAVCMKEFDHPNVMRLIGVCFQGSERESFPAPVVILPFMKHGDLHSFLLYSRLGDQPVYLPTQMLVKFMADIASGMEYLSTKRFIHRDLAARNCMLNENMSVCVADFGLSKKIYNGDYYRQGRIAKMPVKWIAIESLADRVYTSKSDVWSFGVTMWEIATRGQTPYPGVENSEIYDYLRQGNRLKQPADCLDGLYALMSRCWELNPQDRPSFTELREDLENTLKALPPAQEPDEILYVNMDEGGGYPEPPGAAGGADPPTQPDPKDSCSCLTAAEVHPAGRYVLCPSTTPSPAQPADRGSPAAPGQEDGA
- Assay Name: AXL autophosphorylation ELISA in A-172 cells
- Experimental Parameters: cellular, Gas6 stimulated
pIC50: −log10 of the molar value.
Test Readout: pIC50

These solved cases illustrate the format of a correct answer.
CO/N=C/c1ccc2c(Oc3ccc(NC(=O)C4(C(=O)Nc5ccc(F)cc5)CC4)cc3)ccnc2c1 :: 6.52 to 7.00
COc1cc2nccc(Oc3ccc(NC(=O)C4(C(=O)Nc5ccc(F)cc5)CC4)cc3Cl)c2cc1C(=O)O :: < 6.52

--- query ---
-- ask Look up pIC50: CNS(=O)(=O)c1cc2c(Oc3ccc(NC(=O)C4(C(=O)Nc5ccc(F)cc5)CC4)cc3)ccnc2cc1OC
-- reply 7.00 to 8.00

###

- Assay Name: Pharmacokinetic studies in male Sprague-Dawley rats
- Assay type: in vivo
- Experimental Parameters: male, Sprague-Dawley, plasma; rat, PO (3.2 mg/kg); read-out: t½
Test Readout: half-life (h)
Response body: numeric value in h, unit text excluded.

-- ask Look up half-life: CONC(=O)c1cc2c(Oc3ccc(NC(=O)C4(C(=O)Nc5ccc(F)cc5)CC4)cc3)ccnc2cc1OC
-- reply 4.5
